Source listed as paper PMC8434392.

- assayTarget: human recombinant MOR (Homo sapiens)
- Sequence (P35372 whole entry): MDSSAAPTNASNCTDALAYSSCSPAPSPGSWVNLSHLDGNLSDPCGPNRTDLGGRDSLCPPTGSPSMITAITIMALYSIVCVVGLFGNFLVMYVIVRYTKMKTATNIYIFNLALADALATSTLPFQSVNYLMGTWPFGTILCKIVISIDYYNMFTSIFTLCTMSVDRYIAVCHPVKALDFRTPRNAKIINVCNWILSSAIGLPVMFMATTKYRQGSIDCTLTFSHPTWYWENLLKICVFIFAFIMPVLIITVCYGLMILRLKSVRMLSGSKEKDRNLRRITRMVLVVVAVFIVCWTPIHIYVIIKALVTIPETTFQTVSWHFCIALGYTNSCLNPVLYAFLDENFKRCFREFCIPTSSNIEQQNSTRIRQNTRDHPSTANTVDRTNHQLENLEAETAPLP
- protocolDetails: Calcium mobilization assay, CHO MOR cells with Gαqi5
- testSettings: calcium mobilization, CHO MOR Gαqi5; maximum tested concentration 10 µM; read-out: MOR EC50 ± SEM
Numbered stars: 1 amine (or outer) side, 2 acyl side, 3 side chain; on linkers, the order of the positions; unused ones are H or OH. Square brackets hold non-standard residues; d marks the D form. Peptide text beside a SMILES is read from it. * marks the point of attachment. X3 = O=C(c1c(OCCN[*:1])c(-c2ccccc2)nc2ccccc12)[*:2]; X1 = O=C1[C@@H](N[*:1])Cc2ccccc2CN1CCC(=O)[*:2]; NH(1S-phenylpropyl) = CC[C@H](N*)c1ccccc1; Dmt = Cc1cc(O)cc(C)c1C[C@H](N)C(=O)O; 4Amb = NCc1ccc(C(=O)O)cc1; Ac5c = NC1(C(=O)O)CCCC1; X2 = C(CN*)CN1CCOCC1
valueType: EC50 (nM)

| compound | units | numericValue |
| --- | --- | --- |
| CC[C@H](NC(=O)c1c(OCCNC(=O)[C@H](CCCCN)NC(=O)[C@H](Cc2ccccc2)NC(=O)[C@@H](CCCNC(=N)N)NC(=O)[C@@H](N)Cc2c(C)cc(O)cc2C)c(-c2ccccc2)nc2ccccc12)c1ccccc1 [SBL-OPNK-8] (H-[Dmt][dR]FK[X3]-{NH(1S-phenylpropyl)}) | nM | 916 |
| CC[C@H](NC(=O)c1c(OCCNC(=O)CCN2Cc3ccccc3C[C@H](NC(=O)[C@@H](CCCNC(=N)N)NC(=O)[C@@H](N)Cc3c(C)cc(O)cc3C)C2=O)c(-c2ccccc2)nc2ccccc12)c1ccccc1 [SBL-OPNK-9] | nM | 31.3 |
| Cc1cc(O)cc(C)c1C[C@H](N)C(=O)N[C@H](CCCNC(=N)N)C(=O)N[C@@H](Cc1ccccc1)C(=O)N[C@@H](CCCCN)C(=O)NCc1ccc(C(=O)NC2(C(=O)N[C@H](Cc3ccccc3)C(=O)NCCCN3CCOCC3)CCCC2)cc1 [SBL-OPNK-6] (H-[Dmt][dR]FK[4Amb][Ac5c][dF]-X2) | nM | 988 |
| Cc1cc(O)cc(C)c1C[C@H](N)C(=O)N[C@H](CCCNC(=N)N)C(=O)N[C@@H](Cc1ccccc1)C(=O)N[C@@H](CCCCN)C(=O)N[C@@H](CC(=O)O)C(=O)N[C@@H](Cc1ccc(O)cc1)C(=O)N[C@H](Cc1c[nH]c2ccccc12)C(=O)N[C@H](C(=O)N[C@H](Cc1c[nH]c2ccccc12)C(=O)N[C@H](Cc1c[nH]c2ccccc12)C(=O)N[C@@H](CCCCN)C(N)=O)C(C)C [SBL-OPNK-4] (H-[Dmt][dR]FKDY[dW]V[dW][dW]K-NH2) | nM | 815 |
| Cc1cc(O)cc(C)c1C[C@H](N)C(=O)N[C@H](CCCNC(=N)N)C(=O)N[C@H]1Cc2ccccc2CN(CCC(=O)NCc2ccc(C(=O)NC3(C(=O)N[C@H](Cc4ccccc4)C(=O)NCCCN4CCOCC4)CCCC3)cc2)C1=O [SBL-OPNK-7] (H-[Dmt][dR][X1][4Amb][Ac5c][dF]-X2) | nM | 13.1 |
| Cc1cc(O)cc(C)c1C[C@H](N)C(=O)N[C@H](CCCNC(=N)N)C(=O)N[C@H]1Cc2ccccc2CN(CCC(=O)N[C@@H](CC(=O)O)C(=O)N[C@@H](Cc2ccc(O)cc2)C(=O)N[C@H](Cc2c[nH]c3ccccc23)C(=O)N[C@H](C(=O)N[C@H](Cc2c[nH]c3ccccc23)C(=O)N[C@H](Cc2c[nH]c3ccccc23)C(=O)N[C@@H](CCCCN)C(N)=O)C(C)C)C1=O [SBL-OPNK-5] (H-[Dmt][dR][X1]DY[dW]V[dW][dW]K-NH2) | nM | 10.2 |
| Cc1cc(O)cc(C)c1C[C@H](N)C(=O)N[C@H](CCCNC(=N)N)C(=O)N[C@H]1Cc2ccccc2CN(CCC(N)=O)C1=O [KGOP01, H-Dmt-D-Arg-Aba-βAla-NH2, reference compound] | nM | 0.54 |
